Test system: Fasciola hepatica eggs (ABZ-susceptible isolate)
Assay: Egg hatch test (EHT), ABZ-susceptible isolates
Type: cell-based
Conditions: 50 µM; ABZ-susceptible isolate; mean ± SEM
# % Ovicidal activity annotations
Value expressed in %; do not type the unit.

Consider the following illustrative entries.
COc1cc(CNc2nc3cc(Cl)c(Cl)cc3[nH]2)cc(OC)c1OC	00.91
Cc1ccc2[nH]c(NC(=O)c3ccccc3)nc2c1	98.59
COc1ccc2[nH]c(NCc3cccs3)nc2c1	17.73
Cc1ccc2[nH]c(NC(=O)Cc3cccs3)nc2c1	07.20
COc1ccc(-c2nc3cc(C)c(C)cc3[nH]2)cc1	59.08
Cc1ccc2[nH]c(NCc3ccc4ccccc4c3)nc2c1	04.65
Cc1ccc2[nH]c(NCc3ccccc3)nc2c1	95.92
COc1ccc(-c2nc3cc(Cl)c(Cl)cc3[nH]2)cc1	16.09
Brc1ccc(-c2nc3ccccc3[nH]2)cc1	01.93

Now for the compound whose % Ovicidal activity we want.
The recorded % Ovicidal activity for COc1ccc(C(=O)Nc2nc3cc(Cl)c(Cl)cc3[nH]2)cc1 is 02.75

Reference source for all entries: paper PMC10993450
